tested on: 786-0 renal; assay: NCI tumour cell line growth inhibition, 48 h
property measured: TGI (µM)
Unit µM implied. Number only.

Example compounds with recorded TGI:
CN[C@H](C#Cc1c(F)ccc2c1/C(=C/c1[nH]ccc1OC)C(=O)N2)CO = 4.18
O=C(/C=C/c1ccccc1)NNC(=O)c1c(Cl)c(Cl)c(Cl)c(Cl)c1-c1nc2ccccc2[nH]1 = 73.8
Cc1ccc(-c2nc(C#N)c(S(=O)(=O)n3nc(C)cc3N)o2)cc1 = 6.35
NC(=O)c1ccccc1Nc1ccc2nnc(-c3ccncc3)n2n1 = 23.1

Here's the next entry for you.
For this compound ( CC1=CC(=O)c2ccccc2C1=O ), measured TGI is 28.5
